# tested-on: Nav1.8
# test-summary: cell-based or functional assay
property-label: IC50

[in] Can you look up the measured IC50 of GNDCLGFWSACNPKNDKCCANLVCSSKHKWCKGKL (modifications not checked) [Hs1a] for me?
[out] > 3000 nM

Just for reference, patent US20220089663A1 is where these values come from.
